Test system: Aspergillus niger
Assay: Growth inhibition of Aspergillus niger at 4 mg/ml after 7 days by poisoned food technique
Format: functional
Settings: 168 h, read-out: GI
Here, each record is paired with measured inhibition of growth at 4000 µg/mL data.
TEST READOUT: inhibition of growth at 4000 µg/mL (%)

O=C1NC(=O)/C(=C/c2cn(-c3ccccc3)nc2-c2ccc([N+](=O)[O-])cc2)S1 | 61.1
O=C1NC(=O)/C(=C/c2cn(-c3ccccc3)nc2-c2ccc(O)cc2)S1 | 55.5
O=C1NC(=O)/C(=C/c2cn(-c3ccccc3)nc2-c2ccc(Br)cc2)S1 | 61.1
O=C1NC(=O)/C(=C/c2cn(-c3ccccc3)nc2-c2ccc(F)cc2)S1 | 82.5
Cc1ccc(-c2nn(-c3ccccc3)cc2/C=C2\SC(=O)NC2=O)cc1 | 68.8

---

Tested on: Aspergillus niger
Assay: Growth inhibition of Aspergillus niger at 4 mg/ml after 7 days by poisoned food technique
Assay type: functional
Settings: 168 h, read-out: GI
Parameter: inhibition of growth at 4000 µg/mL. Scope: all listed entries.
TEST READOUT: inhibition of growth at 4000 µg/mL (%)

O=C1NC(=O)/C(=C/c2cn(-c3ccccc3)nc2-c2ccc(Cl)cc2)S1 | 65.5
COc1ccc(-c2nn(-c3ccccc3)cc2/C=C2\SC(=O)NC2=O)cc1 | 60
O=C1NC(=O)/C(=C/c2cn(-c3ccccc3)nc2-c2ccccc2)S1 | 62.5
OC(Cn1cncn1)(Cn1cncn1)c1ccc(F)cc1F [FLUCONAZOLE] | 81.1

---

System: Staphylococcus aureus
Experiment: Antibacterial activity against Staphylococcus aureus MTCC 96 at 4 mg/ml after 24 hr by agar well diffusion method
Type: functional
Conditions: MTCC 96, 24 h, read-out: DIZ
Label rule, in plain words: zone of inhibition at 4000 µg/mL of 20 mm and up is Fulfilled, under 20 mm is Not fulfilled.

O=C(O)c1cn(C2CC2)c2cc(N3CCNCC3)c(F)cc2c1=O | Fulfilled
O=C1NC(=O)/C(=C/c2cn(-c3ccccc3)nc2-c2ccc([N+](=O)[O-])cc2)S1 | Fulfilled
O=C1NC(=O)/C(=C/c2cn(-c3ccccc3)nc2-c2ccc(Br)cc2)S1 | Not fulfilled
O=C1NC(=O)/C(=C/c2cn(-c3ccccc3)nc2-c2ccc(O)cc2)S1 | Not fulfilled
COc1ccc(-c2nn(-c3ccccc3)cc2/C=C2\SC(=O)NC2=O)cc1 | Not fulfilled
O=C1NC(=O)/C(=C/c2cn(-c3ccccc3)nc2-c2ccc(Cl)cc2)S1 | Not fulfilled
O=C1NC(=O)/C(=C/c2cn(-c3ccccc3)nc2-c2ccc(F)cc2)S1 | Fulfilled
Cc1ccc(-c2nn(-c3ccccc3)cc2/C=C2\SC(=O)NC2=O)cc1 | Not fulfilled

---

Tested on: Pseudomonas aeruginosa
Conditions: MTCC 741, 4 mg/ml
Description: Antibacterial activity against Pseudomonas aeruginosa MTCC 741 at 4 mg/ml after 24 hr by agar well diffusion method
Activity calls are given as the source filed them. No cut-off for these calls is given here.
TEST READOUT: DIZ

O=C1NC(=O)/C(=C/c2cn(-c3ccccc3)nc2-c2ccccc2)S1 | inactive
COc1ccc(-c2nn(-c3ccccc3)cc2/C=C2\SC(=O)NC2=O)cc1 | inactive
O=C1NC(=O)/C(=C/c2cn(-c3ccccc3)nc2-c2ccc([N+](=O)[O-])cc2)S1 | inactive
